# Assay Protocol: Clearance rate in beagle dog at 2 mg/kg, iv measured upto 24 hrs upto 24 hrs by LC-MS/MS analysis
# Format: ADME, organism-based, Canis lupus familiaris
# Conditions Used: in vivo
Measure: clearance (mL/min/kg)
Response body: numeric value in mL/min/kg, unit text excluded.

[2H]C([2H])([2H])NC1=NC(=O)[C@]2(CCc3ncccc32)c2cc(C(F)(F)F)ccc21 | 6.95

### Prompt Which clearance value is on record for [2H]C([2H])([2H])NC1=NC(=O)[C@]2(CCc3ncccc32)c2cc(C(C)(F)F)ccc21 ?
### Response 15.3

====

# System Name: Cytochrome P450 2B6 (Homo sapiens, UniProt P20813)
# Sequence (P20813 whole entry): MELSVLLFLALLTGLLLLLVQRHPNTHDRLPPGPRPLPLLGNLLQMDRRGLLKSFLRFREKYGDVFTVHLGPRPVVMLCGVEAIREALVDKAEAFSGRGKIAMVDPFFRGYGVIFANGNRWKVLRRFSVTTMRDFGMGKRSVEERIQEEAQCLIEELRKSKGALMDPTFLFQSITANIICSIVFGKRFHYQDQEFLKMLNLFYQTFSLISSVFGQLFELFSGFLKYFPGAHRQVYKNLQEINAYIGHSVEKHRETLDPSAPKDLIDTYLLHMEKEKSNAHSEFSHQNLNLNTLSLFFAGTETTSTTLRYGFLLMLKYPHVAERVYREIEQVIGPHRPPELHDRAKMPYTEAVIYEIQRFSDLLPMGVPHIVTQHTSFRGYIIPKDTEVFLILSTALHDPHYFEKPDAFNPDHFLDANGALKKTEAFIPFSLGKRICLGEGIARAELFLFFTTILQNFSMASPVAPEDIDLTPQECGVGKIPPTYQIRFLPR
pIC50: −log10 of the molar value.
Measure: pIC50

### Prompt Which pIC50 value is on record for [2H]C([2H])([2H])NC1=NC(=O)[C@]2(CCc3ncccc32)c2cc(C(C)(F)F)ccc21 ?
### Response < 5.00

====

# Assay Protocol: Solubility of the compound in pH 7.4 phosphate buffer
# Assay type: physicochemical
Measure: solubility (µM)
Response body: numeric value in µM, unit text excluded.

[2H]C([2H])([2H])NC1=NC(=O)[C@]2(CCc3ncccc32)c2cc(C(F)(F)F)ccc21 | 173

### Prompt Which solubility value is on record for [2H]C([2H])([2H])NC1=NC(=O)[C@]2(CCc3ncccc32)c2cc(C(C)(F)F)ccc21 ?
### Response 174

====

# Assay Protocol: Plasma protein binding in dog assessed as unbound fraction
# Assay type: ADME, cell-free, Canis lupus familiaris
Measured fraction unbound values are reported for all entries that follow.

[2H]C([2H])([2H])NC1=NC(=O)[C@]2(CCc3ncccc32)c2cc(C(C)(F)F)ccc21 | 0.456

// switching to the query compound
### Prompt Which fraction unbound value is on record for [2H]C([2H])([2H])NC1=NC(=O)[C@]2(CCc3ncccc32)c2cc(C(F)(F)F)ccc21 ?
### Response 0.497

====

Measured AUC(0-inf) values are reported for all entries that follow.
# Assay Protocol: AUC (0 to infinity) in male ICR mouse at 10 mg/kg, po and 2 mg/kg, iv measured upto 24 hrs
# Type: ADME, organism-based
# Conditions Used: in vivo
Response body: numeric value in ng·h/mL, unit text excluded.

[2H]C([2H])([2H])NC1=NC(=O)[C@]2(CCc3ncccc32)c2cc(C3CC3)c(F)cc21 | 12300
[2H]C([2H])([2H])NC1=NC(=O)[C@]2(CCc3ncccc32)c2cc(C(C)(F)F)ccc21 | 24900
CNC1=NC(=O)C2(CCc3ncccc32)c2cc(C(F)(F)F)ccc21 (racemic) | 35200
CNC1=NC(=O)C2(CCc3ccccc32)c2nc(C(F)(F)F)ccc21 (stereo unspecified) | 6020
CNC1=NC(=O)C2(CCc3ncccc32)c2nc(C(F)(F)F)ccc21 (stereo unspecified) | 18600

### Prompt Which AUC(0-inf) value is on record for [2H]C([2H])([2H])NC1=NC(=O)[C@]2(CCc3ncccc32)c2cc(C(C)(F)F)c(F)cc21 ?
### Response 14200
